Test system: MDA-MB-453
assay_details: normalised response (% of control), CellTiter-Glo; higher = more viable cells (100 = DMSO, 0 = benzethonium chloride kill control)
assay_conditions: incubation time: 72 h
reported_endpoint: normalised response (%)
Answers are plain numbers, in %.

The compound listed as CC(C)n1nc(-c2ccc3oc(N)nc3c2)c2c(N)ncnc21 [INK128] (1 nM) shows normalised response equal to 88.3

The compound Cc1c(N)nc([C@H](CC(N)=O)NC[C@H](N)C(N)=O)nc1C(=O)N[C@H](C(=O)N[C@H](C)[C@@H](O)[C@H](C)C(=O)N[C@H](C(=O)NCCc1nc(-c2nc(C(=O)NCCC[S+](C)C)cs2)cs1)[C@@H](C)O)[C@@H](OC1OC(CO)C(O)C(O)C1OC1OC(CO)C(O)C(OC(N)=O)C1O)c1cnc[nH]1 (stereo not given in full) [Bleomycin] (10 nM) showed normalised response equal to 104

The measured normalised response associated with CC/C(=C(\c1ccccc1)c1ccc(OCCN(C)C)cc1)c1ccccc1 [Tamoxifen] (1000 nM) reads 93.1

Lab book: normalised response of N[C@@H](Cc1ccc(N(CCCl)CCCl)cc1)C(=O)O [Melphalan] (1250 nM) noted as 0.2

Others:
Entry Cn1nnc2c(C(N)=O)ncn2c1=O [Temozolomide] (10 nM) — recorded normalised response = 98
